Where a name gives a salt, the structure may show the parent alone.
MEASURE: melting point

COMPOUND | melting point
CCS(=O)(=O)Oc1ccc2c3c(c(=O)oc2c1C)CCC3 | 150 to 151 °C
Cc1c(OS(=O)(=O)c2ccc([N+](=O)[O-])cc2)ccc2c3c(c(=O)oc12)CCC3 (as salt: benzenesulfonate) | 192 to 194 °C

Quick one: give me melting point for each item below, same order please.
1. O=c1cc(C2CC2)c2ccc(OS(=O)(=O)c3ccc([N+](=O)[O-])cc3)cc2o1 (as salt: benzenesulfonate)
2. O=c1cc(C2CC2)c2ccc(Oc3nnc(-c4ccccc4)s3)cc2o1
3. CCCc1cc(=O)oc2c(C)c(Oc3nnc(-c4ccccc4)s3)ccc12

192 to 194 °C
158 to 160 °C
110 to 112 °C

Look up melting point for this compound: Cc1ccc(S(=O)(=O)Oc2ccc3c(C4CC4)cc(=O)oc3c2)cc1
132 to 134 °C

----------
target: hMAO-A (Homo sapiens); experiment: MAO-Glo inhibition assay, hMAO-A; type: biochemical; conditions: purchased (Specs) or synthesized compounds; read-out: MAO-A IC50
Sequence (P21397 whole entry): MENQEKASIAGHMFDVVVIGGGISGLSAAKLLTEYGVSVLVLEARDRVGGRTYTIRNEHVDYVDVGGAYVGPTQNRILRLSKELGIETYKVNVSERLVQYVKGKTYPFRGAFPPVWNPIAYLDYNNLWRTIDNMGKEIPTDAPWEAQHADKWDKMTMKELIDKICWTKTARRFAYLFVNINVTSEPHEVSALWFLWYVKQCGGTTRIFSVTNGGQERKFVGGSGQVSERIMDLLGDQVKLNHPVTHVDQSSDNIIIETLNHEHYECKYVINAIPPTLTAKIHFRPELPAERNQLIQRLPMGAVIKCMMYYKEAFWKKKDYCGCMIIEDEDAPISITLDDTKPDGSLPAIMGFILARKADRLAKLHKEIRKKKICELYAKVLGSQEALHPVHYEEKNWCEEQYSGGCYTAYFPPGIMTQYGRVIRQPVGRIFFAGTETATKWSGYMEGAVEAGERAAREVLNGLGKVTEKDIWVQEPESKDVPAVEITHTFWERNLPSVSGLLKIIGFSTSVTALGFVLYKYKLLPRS
For each record, check the reported IC50: if it is below 100 nM write Criterion met, else write Criterion not met.

MOLECULE | CAT
Cc1c(OC(=O)C2CC2)ccc2c3c(c(=O)oc12)CCC3 [FR1] | Criterion met
Cc1c(OCC(=O)N(C)C)ccc2c3c(c(=O)oc12)CCC3 [FR2] | Criterion not met
C=CCOC(=O)COc1ccc2c3c(c(=O)oc2c1C)CCCC3 [FR3] | Criterion not met
CCCc1cc(=O)oc2c(C)c(Oc3nnc(-c4ccccc4)s3)ccc12 [7k] | Criterion met
O=C(COc1ccc2c3c(c(=O)oc2c1)CCC3)c1ccc(Cl)cc1 [FR4] | Criterion not met

Please state whether IC50 is below 100 nM for CCCc1cc(=O)oc2cc(Oc3nnc(-c4ccccc4)s3)ccc12 [7b]
Criterion met

Please state whether IC50 is below 100 nM for Cc1c(C)c2cc(Cl)c(Oc3nnc(-c4ccccc4)s3)cc2oc1=O [7c]
Criterion not met

Please state whether IC50 is below 100 nM for Cc1cc(=O)oc2c(C)c(Oc3nnc(-c4ccccc4)s3)ccc12 [SP1]
Criterion met

----------
MEASURE: melting point (°C)
One number for each entry, in °C.

Worked cases, answers included:
MOLECULE | MEASURE | UNITS_TEXT | EXPERIMENTAL_VALUE
CCCc1cc(=O)oc2cc(Oc3nnc(-c4ccccc4)s3)ccc12 [7b] | melting point | °C | 150
Cc1ccc(S(=O)(=O)Oc2ccc3c4c(c(=O)oc3c2C)CCC4)cc1 [5b] | melting point | °C | 152
CCS(=O)(=O)Oc1ccc2c(C3CC3)cc(=O)oc2c1 [7d] | melting point | °C | 92

Here is another molecule to look at.
Look up melting point for this molecule: Cc1c(Oc2nnc(-c3ccccc3)s2)ccc2c3c(c(=O)oc12)CCC3 [5d]
140

----------
biological target: hMAO-A (Homo sapiens); assay: MAO-Glo inhibition assay, hMAO-A; type: biochemical; conditions: Table S3, Esuprone derivatives; read-out: MAO-A* IC50
MEASURE: pIC50
One number for each entry, as −log10 of the molar value.

Worked cases, answers included:
MOLECULE | TEST_TARGET | EXPERIMENTAL_VALUE
CCCc1cc(=O)oc2c(C)c(OS(=O)(=O)CC)ccc12 [7h] | hMAO-A (Homo sapiens) | 6.04
Cc1ccc(S(=O)(=O)Oc2ccc3c4c(c(=O)oc3c2C)CCC4)cc1 [5b] | hMAO-A (Homo sapiens) | 7.92
CCCc1cc(=O)oc2c(C)c(OS(=O)(=O)c3ccc(C)cc3)ccc12 [7i] | hMAO-A (Homo sapiens) | 6.77
CCCc1cc(=O)oc2c(C)c(OS(=O)(=O)c3ccc([N+](=O)[O-])cc3)ccc12 [7j] | hMAO-A (Homo sapiens) | 7.54
CCS(=O)(=O)Oc1ccc2c(C3CC3)cc(=O)oc2c1 [7d] | hMAO-A (Homo sapiens) | 5.85

Quick one: give me pIC50 for each item below, same order please.
1. CCS(=O)(=O)Oc1ccc2c3c(c(=O)oc2c1C)CCC3 [5a]
2. Cc1ccc(S(=O)(=O)Oc2ccc3c(C4CC4)cc(=O)oc3c2)cc1 [7e]
3. O=c1cc(C2CC2)c2ccc(OS(=O)(=O)c3ccc([N+](=O)[O-])cc3)cc2o1 [7f]

1. 7.96
2. 5.96
3. 7.02
